I'd be grateful if you could share measured growth inhibition for these entries.
assay: NCI Yeast Anticancer Drug Screen. Data for the bub3 strain (AID 167); settings: S. cerevisiae bub3 mutant strain, at 50.0 µM (retest, dose inferred, filed as 5.0), active compounds read high
The panel holds about 79,000 compounds, 15% with a hit somewhere; the sample as a whole holds those more often.
The reply should contain only the number, in %.

Query block: Item `O=C(/C=C/c1ccccc1)CCN1CCN(CCC(=O)/C=C/c2ccccc2)CC1` has what recorded growth inhibition?
Result block: 99

Query block: I would be grateful if you could share the reported growth inhibition for O=C(Cc1ccccc1)NC(C(=O)c1ccccc1)c1ccccc1 (stereo not given) .
Result block: 72

Query block: Item CC(C)C1=C2CCC3(C)C(CCC4C5C6OCC5(CCC6(C)C)CCC43C)C2(C)CC1 (stereo not given) has what recorded growth inhibition?
Result block: 57

Query block: Would you mind telling me what growth inhibition value was observed for OC(c1ccccc1)(C(F)(F)F)C(O)(c1ccccc1)C(F)(F)F (stereo not given) ?
Result block: 99

Query block: Reported growth inhibition, compound CC12CCC(=O)C=C1CCC1C2CCC2(C)C(c3cnc[nH]3)CCC12 (stereo not given) : ____
Result block: 70
